target: HiBiT-tagged SALL4 (Homo sapiens, UniProt Q96SW2+Q9UJQ4); construct: expressed in transfected cells; host or cells: HT-1080 (ATCC CCL-121), lentiviral transduction; experiment: Degradation assay for SALL4 (HiBiT tag bioluminescence assay); type: cell-based; conditions: Table 1; HT-1080 SALL4 HiBiT reporter cells; performed once with technical duplicates, some compounds tested on different days; read-out: HiBiT SALL4: DC50
Sequence (Q9UJQ4 whole entry): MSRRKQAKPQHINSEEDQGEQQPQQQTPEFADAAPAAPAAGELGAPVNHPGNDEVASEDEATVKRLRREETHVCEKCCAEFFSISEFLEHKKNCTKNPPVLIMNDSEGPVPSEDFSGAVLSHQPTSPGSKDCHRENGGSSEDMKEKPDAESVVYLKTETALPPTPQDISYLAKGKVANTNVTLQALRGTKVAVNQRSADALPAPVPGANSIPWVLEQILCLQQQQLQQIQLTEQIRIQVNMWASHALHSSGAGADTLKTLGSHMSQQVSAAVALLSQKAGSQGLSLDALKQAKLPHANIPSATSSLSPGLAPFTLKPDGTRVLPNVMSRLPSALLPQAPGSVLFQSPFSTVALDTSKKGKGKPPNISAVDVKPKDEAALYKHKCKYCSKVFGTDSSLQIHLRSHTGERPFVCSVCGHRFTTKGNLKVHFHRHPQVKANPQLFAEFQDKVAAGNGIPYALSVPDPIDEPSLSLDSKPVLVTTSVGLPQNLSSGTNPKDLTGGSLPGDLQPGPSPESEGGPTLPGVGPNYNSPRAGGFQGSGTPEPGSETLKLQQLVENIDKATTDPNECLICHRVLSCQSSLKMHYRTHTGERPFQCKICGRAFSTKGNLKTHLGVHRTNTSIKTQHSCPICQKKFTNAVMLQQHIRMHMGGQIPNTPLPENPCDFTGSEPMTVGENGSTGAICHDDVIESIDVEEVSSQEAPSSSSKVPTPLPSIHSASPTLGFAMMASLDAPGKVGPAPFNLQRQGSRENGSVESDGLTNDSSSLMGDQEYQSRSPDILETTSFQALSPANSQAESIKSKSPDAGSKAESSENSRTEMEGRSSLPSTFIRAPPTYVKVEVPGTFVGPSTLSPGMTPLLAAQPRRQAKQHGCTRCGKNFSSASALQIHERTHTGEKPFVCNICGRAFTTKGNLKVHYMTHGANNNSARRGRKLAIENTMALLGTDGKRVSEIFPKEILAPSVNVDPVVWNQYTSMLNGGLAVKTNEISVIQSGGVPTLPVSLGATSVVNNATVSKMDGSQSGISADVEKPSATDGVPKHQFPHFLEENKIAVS
Sequence (Q96SW2 whole entry): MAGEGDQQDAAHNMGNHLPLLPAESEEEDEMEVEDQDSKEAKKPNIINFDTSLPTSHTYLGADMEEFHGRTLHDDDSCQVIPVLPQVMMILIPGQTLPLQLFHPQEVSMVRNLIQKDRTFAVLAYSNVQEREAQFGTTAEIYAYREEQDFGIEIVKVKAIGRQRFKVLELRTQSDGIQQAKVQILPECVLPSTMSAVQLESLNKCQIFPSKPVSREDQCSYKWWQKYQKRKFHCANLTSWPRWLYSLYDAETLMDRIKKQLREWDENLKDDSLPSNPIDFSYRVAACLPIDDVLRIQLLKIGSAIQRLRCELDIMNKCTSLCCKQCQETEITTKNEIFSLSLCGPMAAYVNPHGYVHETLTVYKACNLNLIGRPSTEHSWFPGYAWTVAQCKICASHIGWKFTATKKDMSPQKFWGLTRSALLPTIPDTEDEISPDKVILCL
Sequence (Q16531 whole entry partner): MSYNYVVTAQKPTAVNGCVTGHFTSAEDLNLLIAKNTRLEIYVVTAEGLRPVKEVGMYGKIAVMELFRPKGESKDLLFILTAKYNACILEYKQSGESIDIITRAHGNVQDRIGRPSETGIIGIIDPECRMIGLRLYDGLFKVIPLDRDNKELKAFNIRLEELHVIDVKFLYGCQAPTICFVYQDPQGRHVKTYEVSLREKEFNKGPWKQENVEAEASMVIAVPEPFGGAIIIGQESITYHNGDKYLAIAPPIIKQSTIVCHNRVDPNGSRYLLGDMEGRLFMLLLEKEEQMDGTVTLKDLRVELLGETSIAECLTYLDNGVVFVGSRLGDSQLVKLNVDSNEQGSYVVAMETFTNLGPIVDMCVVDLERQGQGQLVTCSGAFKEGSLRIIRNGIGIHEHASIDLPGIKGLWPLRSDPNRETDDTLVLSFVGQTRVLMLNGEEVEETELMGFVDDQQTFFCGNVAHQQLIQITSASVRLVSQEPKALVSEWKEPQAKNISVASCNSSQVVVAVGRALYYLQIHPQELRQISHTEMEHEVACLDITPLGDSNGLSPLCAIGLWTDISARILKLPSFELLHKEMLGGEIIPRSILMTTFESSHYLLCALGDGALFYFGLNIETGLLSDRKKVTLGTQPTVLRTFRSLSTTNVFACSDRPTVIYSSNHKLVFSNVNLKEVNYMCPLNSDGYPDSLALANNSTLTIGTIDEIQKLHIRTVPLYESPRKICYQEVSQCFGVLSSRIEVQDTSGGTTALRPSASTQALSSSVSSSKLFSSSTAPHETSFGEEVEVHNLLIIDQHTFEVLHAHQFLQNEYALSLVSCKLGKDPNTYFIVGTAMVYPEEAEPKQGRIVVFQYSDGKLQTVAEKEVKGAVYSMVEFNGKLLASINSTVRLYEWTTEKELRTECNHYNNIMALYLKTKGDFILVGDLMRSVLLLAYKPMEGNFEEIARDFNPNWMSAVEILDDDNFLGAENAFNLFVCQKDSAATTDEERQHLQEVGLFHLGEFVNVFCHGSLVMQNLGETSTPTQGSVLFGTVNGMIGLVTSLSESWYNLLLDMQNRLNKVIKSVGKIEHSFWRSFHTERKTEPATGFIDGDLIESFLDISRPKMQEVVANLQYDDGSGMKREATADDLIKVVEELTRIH
RESULT TYPE: DC50 (nM)
All answers are understood in nM, so give the number only.

Enquiry: Suppose we examine the compound N#Cc1ccc2c(c1)OC[C@H]1CN(Cc3ccc(Cc4ccc5c6c(cccc46)C(=O)N5C4CCC(=O)NC4=O)cc3)CCN21 (stereo partly drawn) [Compound 3] ; what DC50 value has been reported?
Return: 2.4

Enquiry: One more compound: N#Cc1ccc2c(c1)OC[C@H]1CN(Cc3ccc(Cc4ccc5c6c(cc(F)cc46)C(=O)N5C4CCC(=O)NC4=O)cc3)CCN21 (stereo partly drawn)
Return: 117

Enquiry: Now try N#Cc1ccc(N2CCN(Cc3ccc(Cc4ccc5c6c(cc(F)cc46)C(=O)N5[C@H]4CCC(=O)NC4=O)cc3)CC2)c(F)c1 (single isomer, unassigned) .
Return: 104

Enquiry: Input N#Cc1cnc2c(c1)OC[C@H]1CN(Cc3ccc(Cc4ccc5c6c(cccc46)C(=O)N5C4CCC(=O)NC4=O)c(F)c3)CCN21 (stereo partly drawn)
Return: 1

Enquiry: Now give it for N#Cc1ccc2c(c1)OC[C@H]1CN(Cc3ccc(Cc4ccc5c6c(cccc46)C(=O)N5C4CCC(=O)NC4=O)cc3)CCN21 (stereo partly drawn) [Compound 5] too.
Return: 2

Enquiry: Cool, now N#Cc1ccc(N2CCN(Cc3ccc(Cc4ccc5c6c(cc(F)cc46)C(=O)N5[C@@H]4CCC(=O)NC4=O)cc3)CC2)c(F)c1 (single isomer, unassigned)
Return: 328

Enquiry: Consider next the compound N#Cc1ccc(N2CCN(Cc3ccc(Cc4ccc5c6c(cc(F)cc46)C(=O)N5C4CCC(=O)NC4=O)cc3)CC2)c(F)c1 (stereo not drawn) in the same way.
Return: 32

Enquiry: Another: N#Cc1ccc2c(c1)OC[C@H]1CN(Cc3ccc(Cc4ccc5c6c(cc(F)cc46)C(=O)N5C4CCC(=O)NC4=O)cn3)CCN21 (stereo partly drawn)
Return: 400

---

Listed next: entries and their corresponding DC50.
biological target: HiBiT-tagged IKZF1 (Homo sapiens, UniProt Q13422+Q96SW2); construct: expressed in transfected cells; host or cells: HT-1080 (ATCC CCL-121), lentiviral transduction; test: Degradation assay for IKZF1 (HiBiT tag bioluminescence assay); assay type: cell-based; conditions: Table 2; HT-1080 IKZF1 HiBiT reporter cells; all compounds tested on the same day; read-out: HiBiT IKZF1: DC50
Sequence (Q13422 whole entry, one chain of several): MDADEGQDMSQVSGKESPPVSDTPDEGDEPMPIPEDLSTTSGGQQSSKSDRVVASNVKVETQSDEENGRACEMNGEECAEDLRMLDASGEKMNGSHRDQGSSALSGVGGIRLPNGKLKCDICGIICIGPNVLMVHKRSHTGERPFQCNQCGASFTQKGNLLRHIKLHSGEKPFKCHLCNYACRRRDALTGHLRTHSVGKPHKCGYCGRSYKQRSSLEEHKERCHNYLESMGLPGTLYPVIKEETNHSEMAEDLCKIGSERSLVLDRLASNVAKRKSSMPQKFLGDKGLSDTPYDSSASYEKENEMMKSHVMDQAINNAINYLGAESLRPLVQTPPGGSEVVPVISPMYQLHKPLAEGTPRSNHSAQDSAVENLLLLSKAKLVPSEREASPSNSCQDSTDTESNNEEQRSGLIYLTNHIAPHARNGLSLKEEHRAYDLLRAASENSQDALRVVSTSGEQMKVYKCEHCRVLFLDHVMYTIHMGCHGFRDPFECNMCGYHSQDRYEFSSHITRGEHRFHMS
Entry rule: numbers only, all in nM.

Solved entries (count: 2):
Enquiry: Tell me the measured DC50 of N#Cc1ccc(N2CCN(Cc3ccc(Cc4ccc5c6c(cc(F)cc46)C(=O)N5[C@H]4CCC(=O)NC4=O)cc3)CC2)c(F)c1 (single isomer, unassigned) , please.
Return: 0.102

Enquiry: Entry to check: N#Cc1ccc(N2CCN(Cc3ccc(Cc4ccc5c6c(cccc46)C(=O)N5C4CCC(=O)NC4=O)cc3)CC2)c(F)c1 (stereo not drawn)
Return: 0.014

Let us move to another entry and its DC50.
Enquiry: I would be grateful if you could share the reported DC50 for N#Cc1ccc(N2CCN(Cc3ccc(Cc4ccc5c6c(cc(Br)cc46)C(=O)N5C4CCC(=O)NC4=O)cc3)CC2)c(F)c1 (stereo not drawn) .
Return: 1.23

---

biological target: HiBiT-tagged SALL4 (Homo sapiens, UniProt Q96SW2+Q9UJQ4); construct: expressed in transfected cells; host or cells: HT-1080 (ATCC CCL-121), lentiviral transduction; assay: Degradation assay for SALL4 (HiBiT tag bioluminescence assay); format: cell-based; conditions: HT-1080, Table 2; HT-1080 SALL4 HiBiT reporter cells; all compounds tested on the same day
# Dmax per record follows
Lab book: enter the figure in %, no units written.

Enquiry: Can you look up the measured Dmax of N#Cc1ccc(N2CCN(Cc3ccc(Cc4ccc5c6c(cccc46)C(=O)N5C4CCC(=O)NC4=O)c(F)c3)CC2)c(F)c1 (stereo not drawn) for me?
Return: 80.5

Enquiry: # iterate: O=C1CCC(N2C(=O)c3cccc4c(Cc5ccc(CN6CCOCC6)cc5)ccc2c34)C(=O)N1 (stereo not drawn)
Return: 64.6

API: the following record is the query input.
Enquiry: Dmax lookup needed for N#Cc1ccc(N2CCN(Cc3ccc(Cc4ccc5c6c(ccc(F)c46)C(=O)N5C4CCC(=O)NC4=O)cc3)CC2)c(F)c1 (stereo not drawn) , thanks.
Return: 79.3

---

Below, each entry is listed with its recorded Dmax.
target: HiBiT-tagged SALL4 (Homo sapiens, UniProt Q96SW2+Q9UJQ4); construct: expressed in transfected cells; host or cells: HT-1080 (ATCC CCL-121), lentiviral transduction; assay: Degradation assay for SALL4 (HiBiT tag bioluminescence assay); assay type: cell-based; details: HT-1080, Table 1; HT-1080 SALL4 HiBiT reporter cells; maximum percentage of protein degradation
Please report the result as a number followed by the unit.

# example entries with known answers
Enquiry: Which Dmax value belongs to O=C1CCC(N2C(=O)c3cc(F)cc4c(Cc5ccc(CN6CCC(N7CCOCC7)CC6)cc5F)ccc2c34)C(=O)N1 (stereo not drawn) ?
Return: 33.9%

Enquiry: Same thing, different compound: N#Cc1cnc2c(c1)OC[C@H]1CN(Cc3ccc(Cc4ccc5c6c(cc(F)cc46)C(=O)N5C4CCC(=O)NC4=O)c(F)c3)CCN21 (stereo partly drawn)
Return: 29.4%

Now for a further compound.
Enquiry: Which Dmax value belongs to O=C1CCC(N2C(=O)c3cc(F)cc4c(Cc5ccc(CN6CCOCC6)cc5F)ccc2c34)C(=O)N1 (stereo not drawn) ?
Return: 34.9%
